- Protocol text: in vivo
- Set-up: species or system Sprague-Dawley (SD) rats
- Test settings: Sprague-Dawley, rat, plasma, po, 60 mg·kg^−1
Measured quantity: concentration at 4 h (ng/mL)
Numbers only here, please. The scale is ng/mL.

Compound: CC(C)=CCC[C@](C)(O[C@@H]1O[C@H](CO)[C@@H](O)[C@H](O)[C@H]1O)[C@H]1CC[C@]2(C)[C@@H]1[C@H](O)C[C@@H]1[C@@]3(C)CC[C@H](O)C(C)(C)[C@@H]3[C@@H](O[C@@H]3O[C@H](CO)[C@@H](O)[C@H](O)[C@H]3O[C@@H]3OC[C@@H](O)[C@H](O)[C@H]3O)C[C@]12C [NGR1, notoginsenoside R1]
Measured quantity: concentration at 4 h
Uom: ng/mL
Observed value: 0.38

The compound identified as CC(C)=CCC[C@](C)(O[C@@H]1O[C@H](CO)[C@@H](O)[C@H](O)[C@H]1O)[C@H]1CC[C@]2(C)[C@@H]1[C@H](O)C[C@@H]1[C@@]3(C)CC[C@H](O)C(C)(C)[C@@H]3[C@@H](O[C@@H]3O[C@H](CO)[C@@H](O)[C@H](O)[C@H]3O)C[C@]12C [GRg1, ginsenoside Rg1] registered its concentration at 4 h at 0.34

# concentration at 4 h of CC(C)=CCC[C@](C)(O[C@@H]1O[C@H](CO[C@@H]2O[C@H](CO)[C@@H](O)[C@H](O)[C@H]2O)[C@@H](O)[C@H](O)[C@H]1O)[C@H]1CC[C@]2(C)[C@@H]1[C@H](O)C[C@@H]1[C@@]3(C)CC[C@H](O[C@@H]4O[C@H](CO)[C@@H](O)[C@H](O)[C@H]4O[C@@H]4O[C@H](CO)[C@@H](O)[C@H](O)[C@H]4O)C(C)(C)[C@@H]3CC[C@]12C [GRb1, ginsenoside Rb1] = 86.9
